Could you please report measured MIC for the items listed next?
- Tested on: Enterococcus faecalis
- method description: Antimicrobial activity against antibiotic-resistant Enterococcus faecalis ATCC 51299 assessed as inhibition of visible growth measured after 20 to 24 hrs incubation by CLSI method
- Assay type: functional
- experimental context: time 20-24 hrs
Numbers only, in µg/mL.

Worked examples follow.
In [3]: df
Out[3]:
                            compound_string  unit_abbreviation  value
0  O=C(O)c1ccc(-n2cc(CNc3ccc(Br)cc3)c(-c3cccc(F)c3)n2)cc1              µg/mL     32
1  O=C(O)c1ccc(-n2cc(CNc3ccc(F)c(Cl)c3)c(-c3cccc(F)c3)n2)cc1              µg/mL     32
2  O=C(O)c1ccc(-n2cc(CNc3ccc(Oc4ccccc4)cc3)c(-c3ccc(F)c(F)c3)n2)cc1              µg/mL      4
3  O=C(O)c1ccc(-n2cc(CNc3cccc(C(F)(F)F)c3)c(-c3ccc(F)cc3)n2)cc1              µg/mL     16
4  O=C(O)c1ccc(-n2cc(CNc3cccc(Br)c3)c(-c3ccc(F)cc3)n2)cc1              µg/mL     32
5  O=C(O)c1ccc(-n2cc(CNc3cc(C(F)(F)F)cc(C(F)(F)F)c3)c(-c3cccc(F)c3)n2)cc1              µg/mL      2
6  O=C(O)c1ccc(-n2cc(CNc3ccc(F)c(F)c3)c(-c3cccc(F)c3)n2)cc1              µg/mL     32
7  O=C(O)c1ccc(-n2cc(CNc3cc(Br)cc(C(F)(F)F)c3)c(-c3cccc(F)c3)n2)cc1              µg/mL      4
8  O=C(O)c1ccc(-n2cc(CNc3cccc(Cl)c3)c(-c3ccc(F)cc3)n2)cc1              µg/mL     32
9  O=C(O)c1ccc(-n2cc(CNc3cccc(Br)c3)c(-c3cccc(F)c3)n2)cc1              µg/mL     16

As a next step, examine the molecule that follows.
Lab entry: Enterococcus faecalis assay, molecule "O=C(O)c1ccc(-n2cc(CNc3ccc(Br)c(Cl)c3)c(-c3cccc(F)c3)n2)cc1" , MIC = 4

----------
- Test system: Staphylococcus aureus
- method description: Antimicrobial activity against antibiotic-resistant Staphylococcus aureus ATCC 33592 assessed as inhibition of visible growth measured after 20 to 24 hrs incubation by CLSI method
- Type: functional
- experimental context: time 20-24 hrs
readout type: MIC (µg/mL)
Answers are plain numbers, in µg/mL.

Could you tell me MIC for each of these compounds? They are listed below.
1. O=C(O)c1ccc(-n2cc(CNc3cc(Cl)c(F)c(Cl)c3)c(-c3cccc(F)c3)n2)cc1
2. O=C(O)c1ccc(-n2cc(CNc3cc(F)cc(C(F)(F)F)c3)c(-c3cccc(F)c3)n2)cc1
3. O=C(O)c1ccc(-n2cc(CNc3cc(F)cc(C(F)(F)F)c3)c(-c3ccc(F)cc3)n2)cc1
4. O=C(O)c1ccc(-n2cc(CNc3ccc(Br)c(Cl)c3)c(-c3ccc(F)cc3)n2)cc1
5. O=C(O)c1ccc(-n2cc(CNc3ccc(Cl)c(C(F)(F)F)c3)c(-c3cccc(F)c3)n2)cc1
6. O=C(O)c1ccc(-n2cc(CNc3cc(Br)cc(C(F)(F)F)c3)c(-c3ccc(F)cc3)n2)cc1
7. O=C(O)c1ccc(-n2cc(CNc3ccc(F)c(Cl)c3F)c(-c3ccc(F)c(F)c3)n2)cc1
8. O=C(O)c1ccc(-n2cc(CNc3ccc(Cl)c(Cl)c3)c(-c3ccc(F)cc3)n2)cc1

(A)
1. 1
2. 1
3. 4
4. 1
5. 1
6. 1
7. 4
8. 2

----------
- Test system: Enterococcus faecalis
- method description: Antimicrobial activity against antibiotic-resistant Enterococcus faecalis ATCC 51299 assessed as inhibition of visible growth measured after 20 to 24 hrs incubation by CLSI method
- Format: functional
- experimental context: time 20-24 hrs
Kindly apply the following: TRUE if MIC is less than 8 µg/mL, FALSE in every other case.

(Q) Quick check: does "O=C(O)c1ccc(-n2cc(CNc3cc(Cl)cc(C(F)(F)F)c3)c(-c3ccc(F)cc3)n2)cc1" have MIC under 8 µg/mL?
(A) FALSE

(Q) Quick check: does "O=C(O)c1ccc(-n2cc(CNc3ccc(F)c(Cl)c3F)c(-c3ccc(F)c(F)c3)n2)cc1" have MIC under 8 µg/mL?
(A) FALSE

(Q) Quick check: does "O=C(O)c1ccc(-n2cc(CNc3cc(Cl)cc(Cl)c3)c(-c3ccc(F)cc3)n2)cc1" have MIC under 8 µg/mL?
(A) TRUE

(Q) Quick check: does "O=C(O)c1ccc(-n2cc(CNc3cc(Cl)c(F)c(Cl)c3)c(-c3ccc(F)c(F)c3)n2)cc1" have MIC under 8 µg/mL?
(A) TRUE

(Q) Quick check: does "O=C(O)c1ccc(-n2cc(CNc3cccc(F)c3)c(-c3ccc(F)cc3)n2)cc1" have MIC under 8 µg/mL?
(A) FALSE

(Q) Quick check: does "O=C(O)c1ccc(-n2cc(CNc3cc(F)cc(C(F)(F)F)c3)c(-c3ccc(F)cc3)n2)cc1" have MIC under 8 µg/mL?
(A) FALSE

(Q) Quick check: does "O=C(O)c1ccc(-n2cc(CNc3cccc(OC(F)(F)F)c3)c(-c3ccc(F)cc3)n2)cc1" have MIC under 8 µg/mL?
(A) FALSE

(Q) Quick check: does "O=C(O)c1ccc(-n2cc(CNc3ccc(F)c(C(F)(F)F)c3)c(-c3ccc(F)cc3)n2)cc1" have MIC under 8 µg/mL?
(A) FALSE

(Q) Quick check: does "O=C(O)c1ccc(-n2cc(CNc3ccc(Br)cc3)c(-c3ccc(F)cc3)n2)cc1" have MIC under 8 µg/mL?
(A) FALSE

(Q) Quick check: does "CCCCCCCCCC(=O)N[C@@H](Cc1c[nH]c2ccccc12)C(=O)N[C@H](CC(N)=O)C(=O)N[C@@H](CC(=O)O)C(=O)N[C@@H]1C(=O)NCC(=O)N[C@@H](CCCN)C(=O)N[C@@H](CC(=O)O)C(=O)N[C@H](C)C(=O)N[C@@H](CC(=O)O)C(=O)NCC(=O)N[C@H](CO)C(=O)N[C@@H]([C@H](C)CC(=O)O)C(=O)N[C@@H](CC(=O)c2ccccc2N)C(=O)O[C@@H]1C" have MIC under 8 µg/mL?
(A) FALSE

(Q) Quick check: does "O=C(O)c1ccc(-n2cc(CNc3ccc(Br)cc3)c(-c3ccc(F)c(F)c3)n2)cc1" have MIC under 8 µg/mL?
(A) FALSE

----------
- Test system: Bacillus subtilis
- method description: Antimicrobial activity against antibiotic-resistant Bacillus subtilis ATCC 6623 assessed as inhibition of visible growth measured after 20 to 24 hrs incubation by CLSI method
- Type: functional
- experimental context: time 20-24 hrs
Could you please report measured MIC for the items listed next?
Numbers only, in µg/mL.

Worked examples follow.
>>> print(df.to_string())
                            compound_string  value
0  O=C(O)c1ccc(-n2cc(CNc3cc(Br)cc(C(F)(F)F)c3)c(-c3cccc(F)c3)n2)cc1      1
1  O=C(O)c1ccc(-n2cc(CNc3cc(Cl)ccc3Cl)c(-c3cccc(F)c3)n2)cc1      8
2  O=C(O)c1ccc(-n2cc(CNc3cc(F)cc(C(F)(F)F)c3)c(-c3ccc(F)c(F)c3)n2)cc1      1
3  O=C(O)c1ccc(-n2cc(CNc3ccc(Cl)c(Cl)c3)c(-c3ccc(F)c(F)c3)n2)cc1    0.5
4  O=C(O)c1ccc(-n2cc(CNc3cccc(OC(F)(F)F)c3)c(-c3ccc(F)c(F)c3)n2)cc1      1
5  O=C(O)c1ccc(-n2cc(CNc3cc(Cl)cc(Cl)c3)c(-c3ccc(F)cc3)n2)cc1    0.5
6  O=C(O)c1ccc(-n2cc(CNc3ccc(Cl)c(Cl)c3)c(-c3ccc(F)cc3)n2)cc1      1
7  O=C(O)c1ccc(-n2cc(CNc3cc(F)cc(C(F)(F)F)c3)c(-c3cccc(F)c3)n2)cc1      1
8  O=C(O)c1ccc(-n2cc(CNc3ccc(Cl)c(C(F)(F)F)c3)c(-c3ccc(F)c(F)c3)n2)cc1    0.5

As a next step, examine the molecule that follows.
Lab entry: Bacillus subtilis assay, molecule "O=C(O)c1ccc(-n2cc(CNc3ccc(F)c(F)c3)c(-c3ccc(F)cc3)n2)cc1" , MIC = 16

----------
Could you please report measured MIC for the items listed next?
- Test system: Staphylococcus aureus
- method description: Antimicrobial activity against antibiotic-resistant Staphylococcus aureus ATCC 33592 assessed as inhibition of visible growth measured after 20 to 24 hrs incubation by CLSI method
- Assay type: functional
- experimental context: time 20-24 hrs
Give bare numbers, in µg/mL.

>>> print(df.to_string())
                            compound_string  unit_abbreviation  value
0  O=C(O)c1ccc(-n2cc(CNc3cc(C(F)(F)F)cc(C(F)(F)F)c3)c(-c3cccc(F)c3)n2)cc1              µg/mL      1
1  CC(C)(C)c1ccc(NCc2cn(-c3ccc(C(=O)O)cc3)nc2-c2ccc(F)cc2)cc1              µg/mL      4
2  O=C(O)c1ccc(-n2cc(CNc3cccc(C(F)(F)F)c3)c(-c3ccc(F)cc3)n2)cc1              µg/mL      8
3  O=C(O)c1ccc(-n2cc(CNc3ccc(Br)c(C(F)(F)F)c3)c(-c3ccc(F)cc3)n2)cc1              µg/mL      2
4  O=C(O)c1ccc(-n2cc(CNc3ccc(F)c(C(F)(F)F)c3)c(-c3ccc(F)cc3)n2)cc1              µg/mL      4
5  Cc1cc(NCc2cn(-c3ccc(C(=O)O)cc3)nc2-c2ccc(F)cc2)ccc1Br              µg/mL      4
6  O=C(O)c1ccc(-n2cc(CNc3cccc(OC(F)(F)F)c3)c(-c3ccc(F)cc3)n2)cc1              µg/mL      8
7  O=C(O)c1ccc(-n2cc(CNc3ccc(Cl)c(C(F)(F)F)c3)c(-c3ccc(F)c(F)c3)n2)cc1              µg/mL      2

Could you tell me MIC for each of these molecules? They are listed below.
1. O=C(O)c1ccc(-n2cc(CNc3ccc(Cl)c(Cl)c3)c(-c3cccc(F)c3)n2)cc1
2. O=C(O)c1ccc(-n2cc(CNc3cccc(Br)c3)c(-c3cccc(F)c3)n2)cc1
3. O=C(O)c1ccc(-n2cc(CNc3ccc(Br)c(C(F)(F)F)c3)c(-c3ccc(F)c(F)c3)n2)cc1
4. O=C(O)c1ccc(-n2cc(CNc3cc(C(F)(F)F)cc(C(F)(F)F)c3)c(-c3ccc(F)cc3)n2)cc1
5. O=C(O)c1ccc(-n2cc(CNc3ccc(C(F)(F)F)cc3)c(-c3ccc(F)c(F)c3)n2)cc1
6. O=C(O)c1ccc(-n2cc(CNc3ccc(F)cc3)c(-c3ccc(F)cc3)n2)cc1
7. O=C(O)c1ccc(-n2cc(CNc3cc(Cl)cc(C(F)(F)F)c3)c(-c3ccc(F)c(F)c3)n2)cc1

(A)
4
8
0.5
1
2
16
1

Value of MIC reported for the molecule "O=C(O)c1ccc(-n2cc(CNc3cc(Cl)cc(C(F)(F)F)c3)c(-c3ccc(F)cc3)n2)cc1" is 4
